This collection of values is drawn from patent US20150202192A1.

# run.description: Clinical study in GERD patients: tolerability (diarrhea, flatulence, AE necessitating discontinuation)
# Assay type: in vivo, human
# condition.notes: before treatment, n = 10
# Text: The study included 100 patients with endoscopically negative GERD form, i.e. men and women aged 19 to 50 years old infected with H. pilori. All the patients were divided into 10 groups of 10 persons each, of whom 5 groups (I-V) were experimental ones, while 5 groups (VI-X) were control ones. […] The patients kept their diaries in which they made daily records of the time when they took drugs, recorded disease symptom severity according to Likert scale, severity of meteorism, defecation frequency, etc. […]
Hi there, I'd appreciate the recorded Presence flatulence for every entry that follows.
Numeric answer plus unit only.

Hi, could you look up Presence flatulence for each item in my list?
1. COc1ccc2nc([S@@+]([O-])Cc3ncc(C)c(OC)c3C)[nH]c2c1
2. COc1ccc2[nH]c([S+]([O-])Cc3ncc(C)c(OC)c3C)nc2c1 (centres unmarked)
3. COCCCOc1ccnc(C[S+]([O-])c2nc3ccccc3[nH]2)c1C (centres unmarked)
4. COc1ccnc(C[S+]([O-])c2nc3ccc(OC(F)F)cc3[nH]2)c1OC (centres unmarked)
5. Cc1c(OCC(F)(F)F)ccnc1C[S+]([O-])c1nc2ccccc2[nH]1 (centres unmarked)

Result:
10%
20%
20%
10%
10%

###

I'd be grateful if you could share measured Quality of life no VAC for these entries.
# run.description: Clinical study in GERD patients: quality of life by Visual Analog Scale
# Assay type: in vivo, human
# condition.notes: before treatment, n = 10
Number first, unit second: that is the form wanted.

Below, 4 compounds whose answers are already recorded.
{"columns": ["compound", "Quality of life no VAC"],
 "data": [
  ["Cc1c(OCC(F)(F)F)ccnc1C[S+]([O-])c1nc2ccccc2[nH]1 (centres unmarked)", "57.4 ± 17.5 MM"],
  ["COCCCOc1ccnc(C[S+]([O-])c2nc3ccccc3[nH]2)c1C (centres unmarked)", "58.5 ± 20.2 MM"],
  ["COc1ccc2nc([S@@+]([O-])Cc3ncc(C)c(OC)c3C)[nH]c2c1", "58.1 ± 18.9 MM"],
  ["COc1ccnc(C[S+]([O-])c2nc3ccc(OC(F)F)cc3[nH]2)c1OC (centres unmarked)", "58.1 ± 18.9 MM"]
]}

Next item in the queue.
Request: If you can, please state the reported Quality of life no VAC value of COc1ccc2[nH]c([S+]([O-])Cc3ncc(C)c(OC)c3C)nc2c1 (centres unmarked) .
Result: 58.1 ± 18.9 MM

###

Provide the recorded Presence flatulence for the entries that follow.
# run.description: Clinical study in GERD patients: tolerability (diarrhea, flatulence, AE necessitating discontinuation)
# Format: in vivo, human
# condition.notes: after treatment (56 days), n = 10

# count of solved cases: 4
{"columns": ["compound", "Presence flatulence"],
 "data": [
  ["Cc1c(OCC(F)(F)F)ccnc1C[S+]([O-])c1nc2ccccc2[nH]1 (centres unmarked) [group VIII, lansoprazole]", "60%"],
  ["COCCCOc1ccnc(C[S+]([O-])c2nc3ccccc3[nH]2)c1C (centres unmarked) [group IX, rabeprazole]", "50%"],
  ["COc1ccc2nc([S@@+]([O-])Cc3ncc(C)c(OC)c3C)[nH]c2c1 [group X, esomeprazole]", "60%"],
  ["COc1ccnc(C[S+]([O-])c2nc3ccc(OC(F)F)cc3[nH]2)c1OC (centres unmarked) [group VII, pantoprazole]", "50%"]
]}

Then there is this compound:
Request: Query (compound): COc1ccc2[nH]c([S+]([O-])Cc3ncc(C)c(OC)c3C)nc2c1 (centres unmarked) [group VI, omeprazole] ; field requested: Presence flatulence
Result: 60%

###

# run.description: Clinical study in GERD patients: symptom severity (pyrosis, regurgitation) on Likert scale
# Type: in vivo, human
# condition.notes: oral, 2 times a day for 56 days, n = 10
assay.readout: medium term arresting regurgitation

These solved cases illustrate the format of a correct answer.
{"columns": ["compound", "result"],
 "data": [
  ["COc1ccnc(C[S+]([O-])c2nc3ccc(OC(F)F)cc3[nH]2)c1OC (centres unmarked) [group VII, pantoprazole]", "7.6 ± 3.4 days"],
  ["Cc1c(OCC(F)(F)F)ccnc1C[S+]([O-])c1nc2ccccc2[nH]1 (centres unmarked) [group VIII, lansoprazole]", "7.7 ± 3.2 days"]
]}

Here are 3 compounds. What values of medium term arresting regurgitation were reported for them?
1. COCCCOc1ccnc(C[S+]([O-])c2nc3ccccc3[nH]2)c1C (centres unmarked) [group IX, rabeprazole]
2. COc1ccc2[nH]c([S+]([O-])Cc3ncc(C)c(OC)c3C)nc2c1 (centres unmarked) [group VI, omeprazole]
3. COc1ccc2nc([S@@+]([O-])Cc3ncc(C)c(OC)c3C)[nH]c2c1 [group X, esomeprazole]

Result:
["7.5 ± 3.4 days", "7.5 ± 3.4 days", "7.2 ± 3.1 days"]

###

# run.description: Clinical study in GERD patients: hydrogen breathing test for bacterial overgrowth syndrome
# Format: in vivo, human
# condition.notes: after treatment (Day 56), n = 10
assay.readout: Presence bacterial overgrowth syndrome (%)
Numbers only, in %.

{"columns": ["compound", "unit.abbrev", "Presence bacterial overgrowth syndrome"],
 "data": [
  ["COc1ccnc(C[S+]([O-])c2nc3ccc(OC(F)F)cc3[nH]2)c1OC (centres unmarked)", "%", 40],
  ["COc1ccc2[nH]c([S+]([O-])Cc3ncc(C)c(OC)c3C)nc2c1 (centres unmarked)", "%", 50],
  ["COCCCOc1ccnc(C[S+]([O-])c2nc3ccccc3[nH]2)c1C (centres unmarked)", "%", 40],
  ["COc1ccc2nc([S@@+]([O-])Cc3ncc(C)c(OC)c3C)[nH]c2c1", "%", 50]
]}

Shifting focus to the compound that follows.
Request: Any idea what its Presence bacterial overgrowth syndrome is? The compound is Cc1c(OCC(F)(F)F)ccnc1C[S+]([O-])c1nc2ccccc2[nH]1 (centres unmarked)
Result: 50
